Please go through the items and note down their normalized growth.
- test.summary: chemical genetic growth profiling, strain panel (AID 1159580);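 further: tested at 20 µM; growth read once vehicle control cultures reached saturation at 30 °C; 1 = growth at the plate median or of vehicle wells; lower values mean less growth of the strain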
- protocol.conditions: S. cerevisiae deletion strains, growth OD, locus YEL003W, strain gim4, active compounds read low
Screen size: about 5,500 compounds; about 2,000 (36%) were called active. Another 18% or so got no clear call; they are omitted. The list shows a part of the results.
One number for each entry.

| molecule | test.value |
| --- | --- |
| O=C(O)C1=C[C@@H](O)[C@@H](O)[C@H](O)C1 | 0.979 |

Look at each molecule and report its normalized growth.
1. CC1(C)C=CC(=O)[C@@]2(C)C1CC(=O)[C@]1(C)C2CC[C@@]2(C)[C@H](c3ccoc3)OC(=O)C3OC321 (stereo not given in full)
2. NC(=O)NCCCC(N)C(=O)O (stereo not given)
3. CC[n+]1c(-c2ccccc2)c2cc(N)ccc2c2ccc(N)cc21
4. C[C@@H]([C@H](O)c1ccccc1)N(C)C

## Result
[0.994, 0.994, 0.956, 1.02]
